Tested on: NCI-H226 lung
Experiment: NCI tumour cell line growth inhibition, 48 h
Form field: TGI (one value per entry).
Test Readout: TGI

- Cc1ccc([N+](=O)[O-])cc1NC(=O)/C(=N/NC(=S)NN)C1SC(=S)NC1=O (centres undefined): > 100 µM
- COc1cc2c(cc1OCCCCN1C(=O)c3cccc4cccc(c34)C1=O)N=C[C@@H]1CCCN1C2=O: 23.5 µM
- COc1ccc(CC(=O)N2CCC3(C)CC(=O)CC=C23)cc1OC (centres undefined): > 100 µM
- CCCCCCC(=O)O[C@H]1CC[C@H]2[C@@H]3CCC4C/C(=N/NC(=O)c5cccc6c(=O)c7ccccc7[nH]c56)C=C(C)[C@]4(C)[C@H]3CC[C@]12C (some centres undefined): > 25 µM
- Cc1nn(-c2ccccc2)c(C)c1/C=N/N=C1\SCC(=O)N1c1ccccc1: 66.5 µM
- CC(=O)C1=C(C)N(c2ccc(C)cc2)C2(O)C=CC(=O)C3C(=O)N(c4ccccc4)C(=O)C132 (centres undefined): 34.3 µM
- COc1cc2c3c(n(CCCCN)c(=O)c2cc1OC)-c1cc2c(cc1C3=O)OCO2: 1.58 µM
- Cc1cc(Cl)ccc1Nc1nc(C(F)(F)F)ccc1C(=O)N/N=C/c1ccc(Cl)cc1: 3.82 µM
- CCCCCCCCCCCCCCCCOCC(CC(F)(F)P(=O)(OCC)OCC)OC(C)=O (centres undefined): 28.7 µM
